Values were extracted from paper PMC7031696.

For each of the compounds below, state its Log2(fold change) Octoluse 8/1P.
Tested on: 3D7-MR4 trophozoite parasite-infected RBCs
Assay: Metabolomic profiling (hydrophilic metabolite changes, UHPLC-MS)
Format: cell-based, Plasmodium falciparum
Conditions: metabolite Octoluse 8/1P
Please respond with just the number, no unit label.

Look up Log2(fold change) Octoluse 8/1P with 3D7-MR4 trophozoite parasite-infected RBCs for this compound: COc1ccc(C2c3ccc4ccccc4c3Oc3ncn(CCCN(C)C)c(=N)c32)cc1 (stereo not shown)
0.3908

Recorded Log2(fold change) Octoluse 8/1P for CC(C)C[C@@H](/C=C/S(C)(=O)=O)NC(=O)[C@H](CC(C)C)NC(=O)[C@H](Cc1c[nH]c2ccccc12)NC(=O)CN1CCOCC1 [WLL-vs, reference compound] with 3D7-MR4 trophozoite parasite-infected RBCs, please?
0.0000

# value lookup — system 3D7-MR4 trophozoite parasite-infected RBCs, readout Log2(fold change) Octoluse 8/1P, item COc1cncc(-c2cncc(N3CCN(c4ccncc4)CC3)n2)c1
0.0000

API: value(readout=Log2(fold change) Octoluse 8/1P, system=3D7-MR4 trophozoite parasite-infected RBCs) for record OC(c1cc(C(F)(F)F)nc2c(C(F)(F)F)cccc12)C1CCCCN1 (stereo not shown) [Mefloquine, reference compound]
-0.0524

----------
Test system: 3D7-MR4 trophozoite parasite-infected RBCs
Experiment: Metabolomic profiling (hydrophilic metabolite changes, UHPLC-MS)
Format: cell-based, Plasmodium falciparum
Conditions: metabolite IMP
reported_property: Log2(fold change) IMP
The response must contain the number and no unit.

Could you share which Log2(fold change) IMP value was measured for CC(C)(C)OC(=O)N1CCN(c2ccccc2NC(=O)c2cccc(C(F)(F)F)c2Oc2ccc(F)cc2)CC1 ?
0.0932

Quick check: Log2(fold change) IMP of CC(C)C[C@@H](/C=C/S(C)(=O)=O)NC(=O)[C@H](CC(C)C)NC(=O)[C@H](Cc1c[nH]c2ccccc12)NC(=O)CN1CCOCC1 [WLL-vs, reference compound] ?
0.0400

Entry C[C@H]1Cc2c([nH]c3cc(Cl)c(F)cc23)[C@@]2(N1)C(=O)Nc1ccc(Cl)cc12 [KAE609, reference compound] has what Log2(fold change) IMP?
0.3800

Consider the compound shown here: COCCNCC(O)Cn1c2ccc(Cl)cc2c2cc(Cl)ccc21 (stereo not drawn) What is its recorded Log2(fold change) IMP?
0.0176

State the recorded Log2(fold change) IMP for this entry: Cc1ccc(Oc2ncccc2C(=O)Nc2cccc3cccnc23)c(C)c1
-0.0604

Recorded Log2(fold change) IMP of Cc1cc(Nc2ccc(S(F)(F)(F)(F)F)cc2)n2nc(C(C)(F)F)nc2n1 [DSM265, reference compound] , please.
0.1000

Looking for the measured Log2(fold change) IMP of CCCCN(CCCC)CC(O)c1cc(Cl)cc2c1-c1ccc(Cl)cc1/C2=C/c1ccc(Cl)cc1 (stereo not drawn) [Lumefantrine, reference compound] , can you help?
0.0056

Requested read-out: Log2(fold change) IMP. Entry: Cl.c1ccc2c(NCCCCCCNc3c4c(nc5ccccc35)CCCC4)c3c(nc2c1)CCCC3
0.2158

I'd like to know its Log2(fold change) IMP. The compound in question is CCN(CC)CCn1c(=N)n(CC(O)c2ccc(Cl)c(Cl)c2)c2ccccc21.Cl (stereo not drawn)
-0.5306

I'd like to know its Log2(fold change) IMP. The compound in question is O=C1C(O)=C([C@H]2CC[C@H](c3ccc(Cl)cc3)CC2)C(=O)c2ccccc21 [Atovaquone, reference compound]
0.1599

Name the recorded Log2(fold change) IMP for CN(C)Cc1ccc(-c2cc3c(-c4ccc(CN(C)C)cc4)ccnc3[nH]2)cc1.O=C(O)C(F)(F)F .
0.0372

Returns the measured Log2(fold change) IMP for the input compound. Input: Clc1ccc2c(N3CCN(CCCN4CCN(c5ccnc6cc(Cl)ccc56)CC4)CC3)ccnc2c1 [Piperaquine, reference compound]
-0.1159

Which Log2(fold change) IMP value is on record for CNc1nc(NCCCN(C)C)c2sc(-c3cccc(C(F)(F)F)c3)cc2n1 ?
0.0136

State the recorded Log2(fold change) IMP for this entry: COc1cncc(-c2cncc(N3CCN(c4ccncc4)CC3)n2)c1
-0.0355

Sample CC(C)(C)c1ccc2c(c1)CN(Cc1ccc(Cl)cc1)CO2 — what was its Log2(fold change) IMP?
-0.3808

----------
Test system: 3D7-MR4 trophozoite parasite-infected RBCs
Test: Metabolomic profiling (hydrophilic metabolite changes, UHPLC-MS)
Format: cell-based, Plasmodium falciparum
Settings: metabolite Octoluse 8/1P
Assignment: determine reported Log2(fold change) Octoluse 8/1P for the given molecules.
Reply with the value as a number alone.

# input molecule: Cc1cc(Nc2ccc(S(F)(F)(F)(F)F)cc2)n2nc(C(C)(F)F)nc2n1 [DSM265, reference compound] ; wanted: its Log2(fold change) Octoluse 8/1P
0.2400

Data request, read-out Log2(fold change) Octoluse 8/1P, for CC(C)(C)c1ccc2c(c1)CN(Cc1ccc(Cl)cc1)CO2
0.0000

Log2(fold change) Octoluse 8/1P for CCCCN(CCCC)CC(O)c1cc(Cl)cc2c1-c1ccc(Cl)cc1/C2=C/c1ccc(Cl)cc1 (stereo not drawn) [Lumefantrine, reference compound] ?
-0.0627

# input molecule: CNc1nc(NCCCN(C)C)c2sc(-c3cccc(C(F)(F)F)c3)cc2n1 ; wanted: its Log2(fold change) Octoluse 8/1P
0.0000

Bench note: what Log2(fold change) Octoluse 8/1P did CCN(CC)CCn1c(=N)n(CC(O)c2ccc(Cl)c(Cl)c2)c2ccccc21.Cl (stereo not drawn) show?
0.0988

Using the record for CN(C)Cc1ccc(-c2cc3c(-c4ccc(CN(C)C)cc4)ccnc3[nH]2)cc1.O=C(O)C(F)(F)F , report its Log2(fold change) Octoluse 8/1P.
0.5111

Looking for the measured Log2(fold change) Octoluse 8/1P of Cc1ccc(Oc2ncccc2C(=O)Nc2cccc3cccnc23)c(C)c1 , can you help?
-0.0750

# query: Log2(fold change) Octoluse 8/1P of entry O=C(Nc1ccsc1C(=O)NC1CCCCC1)c1ccc(F)cc1
-0.3337

# lookup: Log2(fold change) Octoluse 8/1P of COCCNCC(O)Cn1c2ccc(Cl)cc2c2cc(Cl)ccc21 (stereo not drawn)
-0.2135

Fill in the blank: the reported Log2(fold change) Octoluse 8/1P of CN(C(=O)c1cn2c(-c3ccc(C(F)(F)F)cc3)cnc2cn1)c1ccc(C#N)cc1 [KAI407, reference compound] is ____.
-0.0134

Would you mind telling me what Log2(fold change) Octoluse 8/1P value was observed for Cc1cc(Nc2ccc(OCc3ccccc3)cc2)nc2cc(O)ccc12 ?
-0.2583

Fill in: Log2(fold change) Octoluse 8/1P of CC(C)(C)NCc1cc(Nc2ccnc3cc(Cl)ccc23)c2c(c1O)CCCC2 [Naphtoquine, Naphthoquine, reference compound] is ___
-0.0241

Param item = FC(F)(F)c1cccc(Nc2nc3ccccc3nc2Nc2cccc(C(F)(F)F)c2)c1 ; retrieve measured Log2(fold change) Octoluse 8/1P.
-0.0525

Can you share its Log2(fold change) Octoluse 8/1P? I mean this molecule: CCCOCc1cc(CN2CCN(c3cccc(Cl)c3)CC2)c(O)c2ncccc12
-0.4530

Fill in the blank: the reported Log2(fold change) Octoluse 8/1P of CCCN(CCC)CC(O)COc1ccccc1C(=O)Nc1ccccc1 (stereo not drawn) is ____.
-0.0556

Quick check: Log2(fold change) Octoluse 8/1P of O=C(Nc1ccc(N2CCNCC2)cc1)c1ccn2ncc(-c3cccc(Cl)c3)c2n1.O=C(O)C(F)(F)F ?
0.0000

Recorded Log2(fold change) Octoluse 8/1P for Cl.c1ccc2c(NCCCCCCNc3c4c(nc5ccccc35)CCCC4)c3c(nc2c1)CCCC3 , please?
0.0000

// query Log2(fold change) Octoluse 8/1P value for entry Clc1ccc2c(N3CCN(CCCN4CCN(c5ccnc6cc(Cl)ccc56)CC4)CC3)ccnc2c1 [Piperaquine, reference compound]
-0.0774

For CCOC(=O)C1=C(C)NC2=C(C(=O)CC(c3ccc(OC)c(OC)c3)C2)C1c1ccccc1Cl (stereo not drawn) [GNF-Pf-5660, reference compound] , what is its reported Log2(fold change) Octoluse 8/1P?
-0.0806

Which Log2(fold change) Octoluse 8/1P value belongs to COc1cc(-c2nc(-c3ccccc3)c(-c3ccccc3)[nH]2)ccc1OCCN(C)C ?
0.3428

What does the data say about its Log2(fold change) Octoluse 8/1P? Entry: CN(C)c1ccc2nc3ccc(=[N+](C)C)cc-3sc2c1 [Methylene blue, reference compound]
-0.1481

Item under review: CC(C)(C)OC(=O)N1CCN(c2ccccc2NC(=O)c2cccc(C(F)(F)F)c2Oc2ccc(F)cc2)CC1 . Reported Log2(fold change) Octoluse 8/1P?
0.2225

Fill in: Log2(fold change) Octoluse 8/1P of FC(F)(F)c1ccc(Nc2cc3[nH]c(-c4cccc(C(F)(F)F)c4)nc3cn2)nc1 is ___
-0.1460

Returns the measured Log2(fold change) Octoluse 8/1P for the input molecule. Input: C[C@H]1Cc2c([nH]c3cc(Cl)c(F)cc23)[C@@]2(N1)C(=O)Nc1ccc(Cl)cc12 [KAE609, reference compound]
-0.7200
